Provenance of the data: paper PMC4498294

Tested on: murine macrophage cell line RAW264.7
Experiment: Eukaryotic cell toxicity assay, RAW264.7
Assay type: cell-based
Conditions: Mus musculus; RAW264.7, value in square brackets; read-out: GIC50 RAW264.7
Criterion: IC50 strictly less than 200 µM. Met: satisfied. Not met: not satisfied.

Worked cases, answers included:
>>> cat("Oc1ccc(Br)c2c1C(c1cccc3c1OCO3)NCC2 (centres unmarked) [Compound 35]")
"not satisfied"
>>> cat("Oc1cc2c(cc1O)C(C1CCCCC1)NCC2 (centres unmarked) [Compound 23]")
"satisfied"
>>> cat("Oc1cc2c(cc1O)C(Cc1ccccc1)NCC2 (centres unmarked) [Compound 3]")
"not satisfied"

Exercise: Strictly below 200 µM: is that where IC50 of Oc1cc2c(cc1O)C(Cc1ccccc1Br)NCC2 (centres unmarked) [Compound 21] sits?
Key: satisfied

Exercise: Quick check: IC50 of Oc1ccc(CC2NCCc3cc(O)c(O)cc32)cc1 (centres unmarked) [Norcoclaurine (2), Norcoclaurine] under 200 µM?
Key: not satisfied

----------
Entries annotated with measured MIC
Tested on: M. bovis BCG Pasteur
Assay: microbe, parasite or virus in culture
Assay type: cell-based
Conditions: Mycobacterium tuberculosis variant bovis BCG, BCG, read-out: MIC M. bovis BCG, SPOTi, value in square brackets

Answered examples (10):
>>> observedvalue("COc1ccc(Cl)c2c1C(Cc1cc3c(cc1Br)OCO3)NCC2 (centres unmarked) [Compound 39]")
"97 µM"
>>> observedvalue("Oc1ccc(Br)c2c1C(Cc1ccc3c(c1)OCO3)NCC2 (centres unmarked) [Compound 28]")
"55 µM"
>>> observedvalue("Oc1ccc(CC2NCCc3cc(O)c(O)cc32)cc1 (centres unmarked) [Norcoclaurine (2), Norcoclaurine]")
"> 369 µM"
>>> observedvalue("NNC(=O)c1ccncc1 [Isoniazid, reference compound]")
"0.73 µM"
>>> observedvalue("Oc1cc2c(c(O)c1O)C(c1cccc3c1OCO3)NCC2 (centres unmarked) [Compound 33]")
"> 332 µM"
>>> observedvalue("Oc1cc2c(cc1O)C(c1cccs1)NCC2 (centres unmarked) [Compound 9]")
"> 404 µM"
>>> observedvalue("Oc1ccc(C2NCCc3cc(O)c(O)cc32)cc1 (centres unmarked) [Compound 6]")
"> 389 µM"
>>> observedvalue("CCCCCCCCCC1NCCc2cc(O)c(O)cc21 (centres unmarked) [Compound 24]")
"275 µM"
>>> observedvalue("COc1cc2c(c(O)c1OC)C[C@H]1c3c(cc4c(c3-2)OCO4)CCN1C [(S)-Leucoxine (1), (S)-Leucoxine]")
"70 µM"
>>> observedvalue("CN1C[C@H](O)c2cc(O)c(O)cc2[C@@H]1c1cccc2c1OCO2 [Compound 31]")
"> 317 µM"

Exercise: For the molecule Oc1cc2c(cc1O)C(Cc1ccc3c(c1)OCO3)NCC2 (centres unmarked) [Compound 20] , give its reported MIC.
Key: 334 µM

Exercise: Please report the measured MIC for Oc1ccc2c(c1)CCNC2Cc1ccc2c(c1)OCO2 (centres unmarked) [Compound 27]
Key: 353 µM

Exercise: Identify measured MIC corresponding to COc1ccc(Cl)c2c1C(Cc1ccc3c(c1)OCO3)NCC2 (centres unmarked) [Compound 36]
Key: 121 µM

Exercise: Give MIC for the following molecule: Oc1cccc(C2NCCc3cc(O)c(O)cc32)c1 (centres unmarked) [Compound 7]
Key: > 389 µM

Exercise: Give the measured MIC for Oc1cc2c(cc1O)C(C1CCCCC1)NCC2 (centres unmarked) [Compound 23]
Key: > 404 µM

Exercise: Identify the reported MIC for the following entry. Oc1cc2c(cc1O)C(Cc1ccccc1)NCC2 (centres unmarked) [Compound 3]
Key: > 392 µM

Exercise: Please report the measured MIC for COc1cccc2c1C(Cc1ccc3c(c1)OCO3)NCC2 (centres unmarked) [Compound 40]
Key: > 168 µM

----------
Target: CYP 1A2 (Homo sapiens)
Construct: purchased; host or cells: baculosomes (insect-cell microsomes; own knowledge)
Sequence (P05177 whole entry): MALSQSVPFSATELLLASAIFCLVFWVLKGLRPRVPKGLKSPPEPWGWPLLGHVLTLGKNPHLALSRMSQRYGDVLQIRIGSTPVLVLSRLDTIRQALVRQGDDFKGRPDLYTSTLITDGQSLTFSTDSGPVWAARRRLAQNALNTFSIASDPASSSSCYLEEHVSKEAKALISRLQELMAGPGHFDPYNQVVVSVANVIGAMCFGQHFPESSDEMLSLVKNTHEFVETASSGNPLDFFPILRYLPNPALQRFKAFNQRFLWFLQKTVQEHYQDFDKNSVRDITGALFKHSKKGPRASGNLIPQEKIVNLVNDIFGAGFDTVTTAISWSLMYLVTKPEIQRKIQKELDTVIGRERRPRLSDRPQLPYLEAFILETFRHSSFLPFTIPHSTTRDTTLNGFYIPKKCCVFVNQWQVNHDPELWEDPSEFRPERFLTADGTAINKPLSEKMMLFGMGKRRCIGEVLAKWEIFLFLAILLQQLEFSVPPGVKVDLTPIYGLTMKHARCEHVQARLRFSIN
Experiment: CYP450 inhibition assay, CYP 1A2
Type: in vitro ADME
Parameters: dose or concentration left out as unconfirmed
Settings: CYP baculosomes with recombinant human CYP1A2, probe fluorogenic substrate (not named); human recombinant enzymes; read-out: Mean % inhibtion CYP 1A2
readoutType: inhibition (%)
Report as a plain number; the unit % is understood.

Sample answers from the record:
>>> observedvalue("Oc1ccc(Br)c2c1C(c1cccc3c1OCO3)NCC2 (stereo not drawn)")
36.7
>>> observedvalue("Oc1ccc(Br)c2c1C(Cc1ccc3c(c1)OCO3)NCC2 (stereo not drawn)")
81.4

Exercise: In one line, give reported inhibition of the entry O=c1cc(-c2ccccc2)oc2c1ccc1ccccc12 [α-naphthoflavone, reference compound] .
Key: 100

----------
System: M. tuberculosis H37Rv
Test: SPOTi growth inhibition assay, M. tuberculosis H37Rv
Type: cell-based
Settings: Mycobacterium tuberculosis, H37RV, SPOTi, value in square brackets; read-out: MIC M. tuberculosis H37Rv
Recorded measurements of MIC, one per entry
Only the number, expressed in µM, is required.

These solved cases illustrate the format of a correct answer.
>>> observedvalue("COc1cc2c(c(O)c1OC)C[C@H]1c3c(cc4c(c3-2)OCO4)CCN1C [(S)-Leucoxine (1), (S)-Leucoxine]")
84
>>> observedvalue("COc1ccc(Cl)c2c1C(Cc1cc3c(cc1Br)OCO3)NCC2 (stereo not shown)")
97
>>> observedvalue("CCCCCCCCCC1NCCc2cc(O)c(O)cc21 (stereo not shown)")
206
>>> observedvalue("COc1ccc(Cl)c2c1C(Cc1ccc3c(c1)OCO3)NCC2 (stereo not shown)")
181

Exercise: For the compound COc1ccc(I)c2c1C(Cc1ccc3c(c1)OCO3)NCC2 (stereo not shown) , report MIC.
Key: 71

----------
System: murine macrophage cell line RAW264.7
Experiment: Eukaryotic cell toxicity assay, RAW264.7
Type: cell-based
Conditions: Mus musculus; RAW264.7, value in square brackets; read-out: GIC50 RAW264.7
Reported IC50 by item:

>>> observedvalue("Oc1cc2c(cc1O)[C@@H](O)CNC2c1cccc2c1OCO2 (some centres unmarked) [Compound 30]")
"295 µM"

Exercise: Given the compound CC1(C(=O)O)NCCc2cc(O)c(O)cc21 (centres unmarked) [Compound 22] , write its reported IC50.
Key: 797 µM

Exercise: Respond only with IC50 recorded for CCCCCCCCCC1NCCc2cc(O)c(O)cc21 (centres unmarked) [Compound 24]
Key: 5.5 µM

Exercise: Retrieve IC50 measured for COc1ccc(Cl)c2c1C(Cc1ccc3c(c1)OCO3)NCC2 (centres unmarked) [Compound 36] and print it.
Key: 124 µM

Exercise: Write down IC50 measured for item CC(C)=CCC[C@H](C)CC1NCCc2cc(O)c(O)cc21 (some centres unmarked) [Compound 13]
Key: > 864 µM

Exercise: Give IC50 for Oc1cc2c(c(O)c1O)C(c1cccc3c1OCO3)NCC2 (centres unmarked) [Compound 33]
Key: 18 µM

Exercise: State, in one line, measured IC50 of COc1ccc(CC2NCCc3cc(O)c(O)cc32)cc1OC (centres unmarked) [Compound 18]
Key: 178 µM

Exercise: In one line, give reported IC50 of the entry COc1ccc(Br)c2c1C(Cc1ccc3c(c1)OCO3)NCC2 (centres unmarked) [Compound 37] .
Key: 80 µM

Exercise: Give the reported value of IC50 for this record: Oc1cc2c(cc1O)C(c1cccc3c1OCO3)NCC2 (centres unmarked) [Compound 29]
Key: 263 µM

Exercise: Annotate the compound COc1ccc(Cl)c2c1C(Cc1cc3c(cc1Br)OCO3)NCC2 (centres unmarked) [Compound 39] with its measured IC50.
Key: 178 µM

Exercise: Specify measured IC50 for Oc1ccc(C2NCCc3cc(O)c(O)cc32)cc1 (centres unmarked) [Compound 6] .
Key: 358 µM

----------
Tested on: murine macrophage cell line RAW264.7
Assay: Eukaryotic cell toxicity assay, RAW264.7
Format: cell-based
Settings: Mus musculus; murine macrophage cell line RAW264.7; read-out: GIC50 RAW264.7
IC50 values, listed per item
Express it in µg/mL; write the number only.

>>> observedvalue("Oc1cc2c(cc1O)C(Cc1ccccc1Br)NCC2 (stereo not shown)")
47
>>> observedvalue("Oc1ccc2c(c1)CCNC2Cc1ccccc1 (stereo not shown)")
195
>>> observedvalue("C[C@@H]1NC(Cc2ccc3c(c2)OCO3)c2ccc(O)cc2[C@H]1O (stereo partly shown)")
181
>>> observedvalue("Oc1ccc2c(c1)CCNC2c1cccc2c1OCO2 (stereo not shown)")
181
>>> observedvalue("Oc1cccc(CC2NCCc3cc(O)c(O)cc32)c1 (stereo not shown)")
64

Exercise: Item COc1ccc(I)c2c1C(Cc1ccc3c(c1)OCO3)NCC2 (stereo not shown) : provide IC50
Key: 28

Exercise: Identify measured IC50 associated with COc1ccc(Cl)c2c1C(Cc1ccc3c(c1)OCO3)NCC2 (stereo not shown)
Key: 41

Exercise: Annotate the compound Oc1ccc(Br)c2c1C(c1cccc3c1OCO3)NCC2 (stereo not shown) with its measured IC50.
Key: 121

Exercise: Let me know recorded IC50 for Oc1cc2c(cc1O)C(c1ccccn1)NCC2 (stereo not shown) , thanks.
Key: 60
